Test system: Salmonella enterica typhimurium
PROTOCOL DETAILS: growth AUC normalised to DMSO control (fraction of control); higher = less growth inhibition, active = hit call of the paper
TEST CONTEXT: 20 µM
Where a name gives a salt, the structure may show the parent alone.
ENDPOINT LABEL: growth AUC normalised to DMSO control

In plain terms, O=C(O)c1cc(=O)c2c(OCC(O)COc3cccc4oc(C(=O)O)cc(=O)c34)cccc2o1 [Cromolyn disodium salt] has a documented growth AUC normalised to DMSO control of 0.98 (inactive)

The recorded growth AUC normalised to DMSO control for CCN(CC)CCOCCOC(=O)C1(c2ccccc2)CCCC1 [Carbetapentane citrate] is 0.995 (inactive)

Memo: CC(=O)N[C@@H](CC(=O)O)C(=O)N[C@@H](CCC(=O)O)C(=O)O , reported growth AUC normalised to DMSO control: 1.03 (inactive)

For C[N+](C)(C)CCCCCC[N+](C)(C)C [Hexamethonium dibromide dihydrate] the compound record lists growth AUC normalised to DMSO control as 0.947 (inactive)

According to the records, this compound CN(C)CCCN1c2ccccc2CCc2ccccc21 [Imipramine hydrochloride] displays growth AUC normalised to DMSO control of 0.998 (inactive)

Per the record, CCN(CC)CCc1nc(-c2ccccc2)no1 [Oxolamine citrate salt] has growth AUC normalised to DMSO control of 0.99 (inactive)

Memo: CCN(CC)CCCC(C)Nc1ccnc2cc(Cl)ccc12 (centres undefined) [Chloroquine diphosphate] , reported growth AUC normalised to DMSO control: 0.997 (inactive)

The compound identified as CCCCCCC[N+](CC)(CC)CCCCc1ccc(Cl)cc1 [Clofilium tosylate] registered its growth AUC normalised to DMSO control at 1 (inactive)

// CN(Cc1cnc2nc(N)nc(N)c2n1)c1ccc(C(=O)N[C@@H](CCC(=O)O)C(=O)O)cc1 : growth AUC normalised to DMSO control value = 0.983 (inactive)
